Tested on: AMPK-alpha2
Construct: gene PRKAA2
COND: concentration: 1 μM, replicates: in singlicate; n = 1
QUANTITY: %Inh (%)

record_smiles=FC(F)(F)c1ccc(-c2nn3ncccc3c2-c2ccnc(Nc3cccc(C(F)(F)F)c3)n2)cc1 experimental_target=AMPK-alpha2 experimental_result=0
record_smiles=Cl.O=S(=O)(c1cccc(F)c1)c1ccc(Nc2ncnc3cc(Br)sc23)cc1Cl experimental_target=AMPK-alpha2 experimental_result=0
record_smiles=N#Cc1ccc(Oc2ccc(Nc3ncnc4cc[nH]c34)cc2Cl)cc1 experimental_target=AMPK-alpha2 experimental_result=15
record_smiles=Nc1n[nH]c2nnc(-c3ccccc3)cc12 experimental_target=AMPK-alpha2 experimental_result=16
record_smiles=Cc1ccc(NC(=O)c2cccc(C#N)c2)cc1-c1ccc(C(=O)Nc2ccncc2)cc1 experimental_target=AMPK-alpha2 experimental_result=15
record_smiles=COc1ccc(-c2oc3ncnc(N)c3c2-c2ccc(OC)cc2)cc1 experimental_target=AMPK-alpha2 experimental_result=10
record_smiles=CS(=O)(=O)CCNCc1ccc(-c2ccc3ncnc(Nc4ccc(OCc5ccccc5)c(Cl)c4)c3c2)o1.Cl experimental_target=AMPK-alpha2 experimental_result=24
record_smiles=CN1c2ccc(-c3ccc(C(=O)NCCO)cc3)cc2-c2[nH]ncc2S1(=O)=O experimental_target=AMPK-alpha2 experimental_result=0
record_smiles=Nc1nc(-c2ccc3c(N)n[nH]c3c2)cc(N2CCCCC2)n1 experimental_target=AMPK-alpha2 experimental_result=0
record_smiles=Cn1cc(-c2ccc3c(c2)CCN3C(=O)Cc2cccc(C(F)(F)F)c2)c2c(N)ncnc21 experimental_target=AMPK-alpha2 experimental_result=13
record_smiles=OCCOCCn1ccc2ncnc(Nc3ccc(Oc4cccc(Cl)c4)c(Cl)c3)c21 experimental_target=AMPK-alpha2 experimental_result=0
record_smiles=NC(=O)c1sc(-n2cnc3ccccc32)cc1OCc1ccccc1F experimental_target=AMPK-alpha2 experimental_result=0
record_smiles=CC(C)(C)c1ccc(-n2cnc3c(N)ncnc32)cc1 experimental_target=AMPK-alpha2 experimental_result=21
record_smiles=CS(=O)(=O)CCNCc1nc(-c2ccc3ncnc(Nc4ccc(OCc5cccc(F)c5)c(Cl)c4)c3c2)cs1.Cl experimental_target=AMPK-alpha2 experimental_result=0
record_smiles=CCn1c(-c2ccncc2)nc2cnccc21 experimental_target=AMPK-alpha2 experimental_result=5
record_smiles=O=c1cc(N2CCOCC2)nc2n(Cc3cccc(Cl)c3)ccn12 experimental_target=AMPK-alpha2 experimental_result=0
record_smiles=Fc1cccc(COc2ccc(Nc3ncnc4nn5ccccc5c34)cc2Cl)c1 experimental_target=AMPK-alpha2 experimental_result=0
record_smiles=O=C(Nc1ccccc1)Nc1ccc(Oc2ccc3nccn3n2)cc1 experimental_target=AMPK-alpha2 experimental_result=0
record_smiles=CC(=O)Nc1n[nH]c2ncc(-c3ccccc3)cc12 experimental_target=AMPK-alpha2 experimental_result=1

---

System: CDK3
COND: concentration: 1 μM, replicates: in singlicate; n = 1
I'd appreciate it if you marked entries Yes when %Inh is lower than 2% and No when it is not.

compound="Fc1cccc(COc2ccc(Nc3ncnc4nn5ccccc5c34)cc2Cl)c1 [GW689066]" class_name=Yes
compound="CSc1ccc(NC2=C(c3ccccc3Cl)C(=O)NC2=O)cc1 [SB-342411]" class_name=No
compound="Nc1nccc2scc(-c3ccc4c(c3)CCN4C(=O)Cc3cc(F)ccc3F)c12 [GSK2587663]" class_name=No
compound="NC(=O)c1sc(-n2cnc3ccccc32)cc1OCc1ccccc1F [GSK1024306]" class_name=Yes
compound="Nc1nc(-c2ccc3c(N)n[nH]c3c2)cc(N2CCC[C@@H](C(=O)Nc3ccccc3)C2)n1.O=C(O)C(F)(F)F.O=C(O)C(F)(F)F [GSK2288359]" class_name=Yes
compound="CCCc1ccc(S(=O)(=O)NC2CCN(c3ccnc(Nc4ccc(OC)cc4)n3)C2)cc1 (stereo not drawn) [GSK1379737]" class_name=No
compound=Clc1cc(Nc2ncnc3cc[nH]c23)ccc1OCc1ccccn1 class_name=Yes
compound=Fc1cccc(COc2ccc(Nc3ncnc4cc[nH]c34)cc2Cl)c1 class_name=No

---

Quick reference: %Inh of the listed items.
Tested on: PRKD2
COND: concentration: 1 μM, replicates: in singlicate; n = 1
QUANTITY: %Inh (%)

record_smiles=Nc1nccc2scc(-c3ccc4c(c3)CCN4C(=O)Cc3cc(F)ccc3F)c12 experimental_result=18
record_smiles=COc1ccc(NC(=O)Nc2ccc(C)c(-c3ccc(C(=O)Nc4ccncc4)cc3)c2)cc1 experimental_result=11
record_smiles=FC(F)(F)c1ccc(-c2cc(-c3c[nH]nc3-c3ccccn3)ccn2)cc1 experimental_result=16
record_smiles=FC(F)(F)c1ccc(-c2nn3ncccc3c2-c2ccnc(Nc3cccc(C(F)(F)F)c3)n2)cc1 experimental_result=6

---

Test system: DAPK1
COND: concentration: 1 μM, replicates: in singlicate; n = 1
// classify: if (%Inh < 20%) y else n

molecule=Nc1nc(-c2ccc3c(N)n[nH]c3c2)cc(N2CCCCC2)n1 class_name=y
molecule=OCCOCCn1ccc2ncnc(Nc3ccc(Oc4cccc(Cl)c4)c(Cl)c3)c21 class_name=y
molecule=Cl.O=S(=O)(c1cccc(F)c1)c1ccc(Nc2ncnc3cc(Br)sc23)cc1Cl class_name=y
molecule=COC(=O)c1cccc(NC(=O)NCCNc2ccnc(Nc3ccc(F)cc3)n2)c1 class_name=y
molecule=Fc1cccc(COc2ccc(Nc3ncnc4sc(-c5ccc[nH]5)cc34)cc2Cl)c1 class_name=n
molecule=Nc1n[nH]c2nnc(-c3ccccc3)cc12 class_name=n
molecule=Cc1cccc(-c2nc(Nc3ccc4[nH]nnc4c3)c3ccccc3n2)n1 class_name=y
molecule=CCc1nc(-c2cccc(C)c2)c(-c2ccnc(NC(=O)c3ccccc3)c2)s1 class_name=n
molecule="CC(C)(C)OC(=O)NC1CCCN(c2cc(-c3ccc4c(N)n[nH]c4c3)nc(N)n2)C1 (stereo not drawn)" class_name=y

---

System: PRKD2
QUANTITY: Kd (nM)

compound="Cc1cccc(-c2nc(Nc3ccc4[nH]nnc4c3)c3ccccc3n2)n1 [GW867587]" units_text=nM experimental_result=83

---

%Inh values, listed per item
Test system: PFTAIRE2
COND: concentration: 1 μM, replicates: in singlicate; n = 1
QUANTITY: %Inh (%)

record_smiles=Oc1ccc2ncnc(Nc3ccc(OCc4ccccc4)cc3)c2c1 experimental_result=13
record_smiles=Nc1nccc2scc(-c3ccc4c(c3)CCN4C(=O)Cc3cc(F)ccc3F)c12 experimental_result=15
record_smiles=O=C(Nc1n[nH]c2nc(-c3ccco3)c(Br)cc12)c1ccc(CN2CCCC2)cc1.O=C(O)[C@H](O)[C@@H](O)C(=O)O experimental_result=5
record_smiles=Cc1cccc(-c2nc(Nc3ccc4[nH]nnc4c3)c3ccccc3n2)n1 experimental_result=0
record_smiles=COc1cc2c(Nc3cccc(NC(=O)c4ccccc4)c3)ncnc2cc1OCCCN1CCOCC1 experimental_result=16
record_smiles=CSc1ccc(NC2=C(c3ccccc3Cl)C(=O)NC2=O)cc1 experimental_result=20
record_smiles=N#Cc1ccc(Oc2ccc(Nc3ncnc4cc[nH]c34)cc2Cl)cc1 experimental_result=11
record_smiles=FC(F)(F)c1ccc(-c2cc(-c3c[nH]nc3-c3ccccn3)ccn2)cc1 experimental_result=20
record_smiles=CC(C)N1CCC(n2cnc(-c3ccc(F)cc3)c2-c2ccnc(N)n2)CC1 experimental_result=0
record_smiles=COc1cc2ncnc(Nc3ccc(OCc4ccccc4Br)c(Cl)c3)c2cc1OC.Cl experimental_result=4
record_smiles=Nc1nc(-c2ccccn2)c(-c2ccnc3ccccc23)s1 experimental_result=9
record_smiles=C[C@@H]1CCN(C(=O)CO)C[C@@H]1N(C)c1ncnc2[nH]ccc12 experimental_result=0
record_smiles=COc1ccc(NC(=O)c2ccc(-c3cc(-c4nnc(C)o4)ccc3C)cc2)cc1 experimental_result=0
record_smiles=Cl.c1ccc(Cn2ccc3cc(Nc4ncnc5ccccc45)ccc32)cc1 experimental_result=28
record_smiles=Cn1ccc2ncnc(Oc3ccc(NC(=O)Nc4cccnc4)c(Cl)c3)c21 experimental_result=10
record_smiles=Nc1nc(-c2cccnc2)c(-c2ccnc3ccccc23)s1 experimental_result=16
record_smiles=Cn1cc(-c2ccc3c(c2)CCN3C(=O)Cc2cccc(C(F)(F)F)c2)c2c(N)ncnc21 experimental_result=18
record_smiles=CNc1nccc(-c2c(-c3ccc(F)cc3)ncn2C2CCN(C)CC2)n1 experimental_result=0
record_smiles=Nc1n[nH]c2nnc(-c3ccccc3)cc12 experimental_result=17

---

Test system: TNNI3K
COND: concentration: 1 μM, replicates: in singlicate; n = 1
QUANTITY: %Inh (%)

compound="CCCc1ccc(S(=O)(=O)NC2CCN(c3ccnc(Nc4ccc(OC)cc4)n3)C2)cc1 (stereo not drawn) [GSK1379737]" experimental_target=TNNI3K experimental_result=6
compound="Fc1cccc(COc2ccc(Nc3ncnc4sc(-c5ccc[nH]5)cc34)cc2Cl)c1 [GW707818]" experimental_target=TNNI3K experimental_result=13
compound="O=C(Nc1n[nH]c2nc(-c3ccco3)c(Br)cc12)c1ccc(CN2CCCC2)cc1.O=C(O)[C@H](O)[C@@H](O)C(=O)O [SB-742352]" experimental_target=TNNI3K experimental_result=12
compound="FC(F)(F)c1ccc(-c2nn3ncccc3c2-c2ccnc(Nc3cccc(C(F)(F)F)c3)n2)cc1 [GW828205]" experimental_target=TNNI3K experimental_result=0
compound="CC(C)(C)c1ccc(-n2cnc3c(N)ncnc32)cc1 [SKF-97263]" experimental_target=TNNI3K experimental_result=12
compound="COC(=O)c1cccc(NC(=O)NCCNc2ccnc(Nc3ccc(F)cc3)n2)c1 [GSK1379883]" experimental_target=TNNI3K experimental_result=0
compound="Clc1ccc(-c2cc(-c3c[nH]nc3-c3ccccn3)ccn2)cc1 [GW681251]" experimental_target=TNNI3K experimental_result=17
compound="COc1cc2ncnc(Nc3ccc(OCc4ccccc4Br)c(Cl)c3)c2cc1OC.Cl [GI261590]" experimental_target=TNNI3K experimental_result=5
compound="CS(=O)(=O)CCNCc1nc(-c2ccc3ncnc(Nc4ccc(OCc5cccc(F)c5)c(Cl)c4)c3c2)cs1.Cl [GW583340]" experimental_target=TNNI3K experimental_result=0
compound="COc1cc2c(Nc3cccc(NC(=O)c4ccccc4)c3)ncnc2cc1OCCCN1CCOCC1 [GSK223810]" experimental_target=TNNI3K experimental_result=25
compound="CSc1nn2c(=O)cc(N3CCOCC3)nc2n1Cc1cccc(Cl)c1Cl [GSK2347225]" experimental_target=TNNI3K experimental_result=15
compound="c1ccc(-c2ccc3c(-c4ccnc(Nc5ccc6c(c5)OCCO6)n4)cnn3n2)cc1 [GW818941]" experimental_target=TNNI3K experimental_result=17
compound=Fc1cccc(COc2ccc(Nc3ncnc4cc[nH]c34)cc2Cl)c1 experimental_target=TNNI3K experimental_result=5
compound="CC(C)N1CCC(n2cnc(-c3ccc(F)cc3)c2-c2ccnc(N)n2)CC1 [SB-223132]" experimental_target=TNNI3K experimental_result=4
compound="CC(=O)Nc1n[nH]c2ncc(-c3ccccc3)cc12 [SB-548492]" experimental_target=TNNI3K experimental_result=0
compound=COC(=O)c1c(-c2ccccc2)c2cc(Cl)ccc2c(=O)n1Cc1ccc(S(C)(=O)=O)cc1 experimental_target=TNNI3K experimental_result=19
compound=Clc1cc(Nc2ncnc3cc[nH]c23)ccc1OCc1ccccn1 experimental_target=TNNI3K experimental_result=2
compound=C[C@@H]1CCN(C(=O)CO)C[C@@H]1N(C)c1ncnc2[nH]ccc12 experimental_target=TNNI3K experimental_result=0
compound=O=C(CCO)NCCn1ccc2ncnc(Nc3ccc(Oc4cccc(C(F)(F)F)c4)c(Cl)c3)c21 experimental_target=TNNI3K experimental_result=0
compound=CN1c2ccc(-c3ccc(C(=O)NCCO)cc3)cc2-c2[nH]ncc2S1(=O)=O experimental_target=TNNI3K experimental_result=3
compound="Fc1ccc(Nc2nccc(-c3c(-c4ccc(Cl)cc4)nn4ncccc34)n2)cc1F [GW829058]" experimental_target=TNNI3K experimental_result=3
compound="Nc1nc(-c2cccnc2)c(-c2ccnc3ccccc23)s1 [GW684083]" experimental_target=TNNI3K experimental_result=0
compound="Cc1cccc(-c2nc(Nc3ccc4[nH]nnc4c3)c3ccccc3n2)n1 [GW867587]" experimental_target=TNNI3K experimental_result=0
compound="Cl.Cl.c1ccc(-c2cc3ccncc3cc2OC2CCNCC2)cc1 [GSK1122999]" experimental_target=TNNI3K experimental_result=26
compound="CSc1ccc(NC2=C(c3ccccc3Cl)C(=O)NC2=O)cc1 [SB-342411]" experimental_target=TNNI3K experimental_result=29
compound="O=c1cc(N2CCOCC2)nc2n(Cc3cccc(Cl)c3)ccn12 [GSK2296823]" experimental_target=TNNI3K experimental_result=1
compound="COc1ccc(NC(=O)c2ccc(-c3cc(-c4nnc(C)o4)ccc3C)cc2)cc1 [GW595885]" experimental_target=TNNI3K experimental_result=0
compound="COc1ccc(Nc2nccc(N3CCC(NC(=O)c4cccc(NC(C)=O)c4)C3)n2)cc1 (stereo not drawn) [GSK1379732]" experimental_target=TNNI3K experimental_result=7
compound="C[C@H]1CC[C@@H](C(=O)Nc2ccccc2)CN1c1cc(-c2ccc3c(N)n[nH]c3c2)nc(N)n1 [GSK2283293]" experimental_target=TNNI3K experimental_result=0
compound=N#Cc1ccc(Oc2ccc(Nc3ncnc4cc[nH]c34)cc2Cl)cc1 experimental_target=TNNI3K experimental_result=26
compound=O=C(Nc1ccccc1)Nc1ccc(Oc2ccc3nccn3n2)cc1 experimental_target=TNNI3K experimental_result=82
compound="CC(C)(C)OC(=O)NC1CCCN(c2cc(-c3ccc4c(N)n[nH]c4c3)nc(N)n2)C1 (stereo not drawn) [GSK2286096]" experimental_target=TNNI3K experimental_result=6
compound="COc1ccc(-c2oc3ncnc(N)c3c2-c2ccc(OC)cc2)cc1 [SB-589132]" experimental_target=TNNI3K experimental_result=50
compound="Cn1cc(-c2ccc3c(c2)CCN3C(=O)Cc2cccc(C(F)(F)F)c2)c2c(N)ncnc21 [GSK2606414]" experimental_target=TNNI3K experimental_result=0
compound="Oc1ccc2ncnc(Nc3ccc(OCc4ccccc4)cc3)c2c1 [GI262866]" experimental_target=TNNI3K experimental_result=77
compound="Nc1nc(-c2ccc3c(N)n[nH]c3c2)cc(N2CCCCC2)n1 [GSK2228768]" experimental_target=TNNI3K experimental_result=0
